# experimental-conditions: human
Where a SMILES comes first, the peptide text is derived from it. Bridges are numbered along the chain shown (N, C = ends). [ ]: non-standard residue; d: D form. The star is where a group is joined. Threoninol(2S,3R) = C[C@@H](O)[C@H](CO)N*
reported-endpoint: Hepatotoxicity (malignant tumour)
Form: value (number only, do not type unit).

Field: example entries. Status: answers known.
[
  {
    "molecule": "CC(=O)N[C@@H]1[C@H](Oc2c3cc4cc2Oc2ccc(cc2Cl)[C@@H](O[C@@H]2O[C@@H](CO)[C@@H](O)[C@H](O)[C@@H]2NC(C)=O)[C@@H]2NC(=O)[C@H](NC(=O)[C@@H]4NC(=O)[C@H]4NC(=O)[C@@H](Cc5ccc(c(Cl)c5)O3)NC(=O)[C@H](N)c3ccc(O)c(c3)Oc3cc(O)cc4c3)c3ccc(O)c(c3)-c3c(O[C@H]4O[C@H](CO)[C@@H](O)[C@@H](O)[C@@H]4O)cc(O)cc3[C@@H](C(=O)O)NC2=O)O[C@@H](CO)[C@@H](O)[C@@H]1O",
    "Hepatotoxicity (malignant tumour)": 0
  },
  {
    "molecule": "O=C1NCCN1c1ncc([N+](=O)[O-])s1",
    "Hepatotoxicity (malignant tumour)": 0
  },
  {
    "molecule": "CCC(Cc1c(I)cc(I)c(N)c1I)C(=O)O (configuration not stated)",
    "Hepatotoxicity (malignant tumour)": 0
  },
  {
    "molecule": "CCn1cc(C(=O)O)c(=O)c2cc(F)c(N3CCN(C)CC3)cc21",
    "Hepatotoxicity (malignant tumour)": 0
  },
  {
    "molecule": "CCn1cc(C(=O)O)c(=O)c2cnc(N3CCNCC3)nc21",
    "Hepatotoxicity (malignant tumour)": 0
  }
]

Value of Hepatotoxicity (malignant tumour) reported for the molecule CC(=O)OCC1=C(C(=O)O)N2C(=O)[C@@H](NC(=O)Cc3cccs3)[C@H]2SC1 is 0

Value of Hepatotoxicity (malignant tumour) reported for the molecule CN1CCN2c3ccccc3Cc3ccccc3C2C1 (configuration not stated) is 0

Value of Hepatotoxicity (malignant tumour) reported for the molecule CC[C@]1(O)C[C@@H]2CN(CCc3c([nH]c4ccccc34)[C@@](C(=O)OC)(c3cc4c(cc3OC)N(C)[C@H]3[C@@](O)(C(=O)OC)[C@H](OC(C)=O)[C@]5(CC)C=CCN6CC[C@]43[C@@H]65)C2)C1 is 0

Value of Hepatotoxicity (malignant tumour) reported for the molecule C[C@@H](O)[C@H](CO)NC(=O)[C@@H]1CSSC[C@H](NC(=O)[C@H](N)Cc2ccccc2)C(=O)N[C@@H](Cc2ccccc2)C(=O)N[C@H](Cc2c[nH]c3ccccc23)C(=O)N[C@@H](CCCCN)C(=O)N[C@@H]([C@@H](C)O)C(=O)N1 (H-[dF]CF[dW]KTC-{Threoninol(2S,3R)}; disulfide 2-7) is 0

Value of Hepatotoxicity (malignant tumour) reported for the molecule C(=C\c1ccccc1)/CN1CCN(C(c2ccccc2)c2ccccc2)CC1 is 0

Value of Hepatotoxicity (malignant tumour) reported for the molecule CN1CCN(CC(=O)N2c3ccccc3C(=O)Nc3cccnc32)CC1 [PIRENZEPINE] is 0

Value of Hepatotoxicity (malignant tumour) reported for the molecule CNC(=C[N+](=O)[O-])NCCSCc1csc(CN(C)C)n1 is 0

* * *

# experimental-conditions: human
Each entry below carries its reported Hepatotoxicity (severe hepatitis).

Value of Hepatotoxicity (severe hepatitis) reported for the molecule CC1(C)S[C@@H]2[C@H](NC(=O)[C@H](C(=O)O)c3ccsc3)C(=O)N2[C@H]1C(=O)O.O=C(O)[C@H]1/C(=C/CO)O[C@@H]2CC(=O)N21 is 1

Value of Hepatotoxicity (severe hepatitis) reported for the molecule CC1(C)S[C@@H]2[C@H](NC(=O)[C@H](NC(=O)N3CCNC3=O)c3ccccc3)C(=O)N2[C@H]1C(=O)O [AZLOCILLIN] is 0

Value of Hepatotoxicity (severe hepatitis) reported for the molecule CC(C)C[C@H]1C(=O)N2CCC[C@H]2[C@]2(O)O[C@](NC(=O)[C@@H]3C=C4c5cccc6[nH]c(Br)c(c56)C[C@H]4N(C)C3)(C(C)C)C(=O)N12 [BROMOCRIPTINE] is 0

Value of Hepatotoxicity (severe hepatitis) reported for the molecule CN(C)[C@@H]1C(O)=C(C(=O)NCNCCCC[C@H](N)C(=O)O)C(=O)[C@@]2(O)C(O)=C3C(=O)c4c(O)cccc4[C@@](C)(O)[C@H]3C[C@@H]12 [LYMECYCLINE] is 0

Value of Hepatotoxicity (severe hepatitis) reported for the molecule CCN[C@@H](C)Cc1cccc(C(F)(F)F)c1 [DEXFENFLURAMINE] is 0

Value of Hepatotoxicity (severe hepatitis) reported for the molecule C=C(CC)C(=O)c1ccc(OCC(=O)O)c(Cl)c1Cl [ETHACRYNIC ACID] is 2

* * *

# protocol-description: Highest frequency of moderate liver toxicity observed during clinical trials, expressed as a percentage. [column '% BIOL' in source]
# experimental-conditions: human
Assign a class from recorded Hepatotoxicity (moderate); defined classes: bin 1: < 2%; bin 2: ≥ 2% and < 20%; bin 3: ≥ 20%

[
  {
    "compound": "CC(C)(Sc1cc(C(C)(C)C)c(O)c(C(C)(C)C)c1)Sc1cc(C(C)(C)C)c(O)c(C(C)(C)C)c1 [PROBUCOL]",
    "group": "bin 1"
  }
]

Hi there! Could you help me figure out the category for C[C@H](CCC(=O)O)[C@H]1CC[C@H]2[C@@H]3[C@H](O)C[C@@H]4C[C@H](O)CC[C@]4(C)[C@H]3CC[C@]12C [CHENODIOL] please?
bin 3

Hi there! Could you help me figure out the category for CC(OC(=O)OC1CCCCC1)OC(=O)C1=C(CSc2nnnn2CCN(C)C)CS[C@@H]2[C@H](NC(=O)Cc3csc(N)n3)C(=O)N12 (some centres undefined) please?
bin 3

Hi there! Could you help me figure out the category for CNC(=C[N+](=O)[O-])NCCSCc1csc(CN(C)C)n1 [NIZATIDINE] please?
bin 2

Hi there! Could you help me figure out the category for Cc1ncsc1CCCl [CLOMETHIAZOLE] please?
bin 1

Hi there! Could you help me figure out the category for OCCN1CCN(CCCN2c3ccccc3Sc3ccc(Cl)cc32)CC1 [PERPHENAZINE] please?
bin 3

Hi there! Could you help me figure out the category for COC(=O)C[C@](O)(CCCC(C)(C)O)C(=O)O[C@@H]1C(OC)=C[C@]23CCCN2CCc2cc4c(cc2[C@H]13)OCO4 [OMACETAXINE MEPESUCCINATE] please?
bin 2

Hi there! Could you help me figure out the category for CC(Cc1ccccc1)NCCC(c1ccccc1)c1ccccc1 (centres undefined) [PRENYLAMINE] please?
bin 2

Hi there! Could you help me figure out the category for COc1ccccc1Oc1c(NS(=O)(=O)c2ccc(C(C)(C)C)cc2)nc(-c2ncccn2)nc1OCCO [BOSENTAN] please?
bin 2

Hi there! Could you help me figure out the category for CCN(CC)CCNc1ccc(CO)c2sc3ccccc3c(=O)c12 [HYCANTHONE] please?
bin 1

Hi there! Could you help me figure out the category for O=c1[nH]c2ccccc2n1CCCN1CCN(C(c2ccccc2)c2ccccc2)CC1 [OXATOMIDE] please?
bin 2

Hi there! Could you help me figure out the category for CCc1ccc(CCOc2ccc(CC3SC(=O)NC3=O)cc2)nc1 (centres undefined) [PIOGLITAZONE] please?
bin 1

Hi there! Could you help me figure out the category for O=C(NCC1CCCCN1)c1cc(OCC(F)(F)F)ccc1OCC(F)(F)F (centres undefined) [FLECAINIDE] please?
bin 3

Hi there! Could you help me figure out the category for CCN(CC)C(=O)C1(c2ccccc2)CC1CN (centres undefined) please?
bin 1

Hi there! Could you help me figure out the category for COc1cc(C)c(/C=C/C(C)=C/C=C/C(C)=C/C(=O)O)c(C)c1C [ACITRETIN] please?
bin 3

Hi there! Could you help me figure out the category for O=C(O)P(=O)(O)O [FOSCARNET] please?
bin 2

Hi there! Could you help me figure out the category for CO[C@H]1C[C@H](O[C@H]2[C@H](C)[C@@H](O[C@@H]3O[C@H](C)C[C@H](N(C)C)[C@H]3OC(C)=O)[C@@H](C)C[C@@]3(CO3)C(=O)[C@H](C)[C@@H](OC(C)=O)[C@@H](C)[C@@H](C)OC(=O)[C@@H]2C)O[C@@H](C)[C@@H]1OC(C)=O [TROLEANDOMYCIN] please?
bin 3

Hi there! Could you help me figure out the category for COc1cc2c(c(OC)c1OC)-c1ccc(OC)c(=O)cc1[C@@H](NC(C)=O)CC2 [COLCHICINE] please?
bin 3

* * *

Each entry below carries its reported Hepatotoxicity (moderate).
# protocol-description: Highest frequency of moderate liver toxicity observed during clinical trials, expressed as a percentage. [column '% BIOL' in source]
# experimental-conditions: human
State just the number; it will be interpreted in %.

Field: example entries. Status: answers known.
[
  {
    "molecule": "CC(N)C(=O)OC(C)(C)Cc1ccc(Cl)cc1 (stereo not drawn) [ALAPROCLATE]",
    "reported-endpoint": "Hepatotoxicity (moderate)",
    "recorded-number": 0
  },
  {
    "molecule": "CN(C)[C@@H]1C(O)=C(C(N)=O)C(=O)[C@@]2(O)C(O)=C3C(=O)c4c(O)ccc(Cl)c4[C@@](C)(O)[C@H]3C[C@@H]12 [CHLORTETRACYCLINE]",
    "reported-endpoint": "Hepatotoxicity (moderate)",
    "recorded-number": 0
  }
]

Value of Hepatotoxicity (moderate) reported for the molecule O=C(CCCN1CCC(C(=O)c2ccc(F)cc2)CC1)c1ccc(F)cc1 [LENPERONE] is 0

Value of Hepatotoxicity (moderate) reported for the molecule CC(=O)NCCCCCCNC(C)=O [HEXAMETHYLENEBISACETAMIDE] is 0

Value of Hepatotoxicity (moderate) reported for the molecule CC(=O)OCC1=C(C(=O)O)N2C(=O)[C@@H](NC(=O)Cc3cccs3)[C@H]2SC1 [CEPHALOTHIN] is 1.5

Value of Hepatotoxicity (moderate) reported for the molecule CC/C(=C(/c1ccc(OCCN(C)C)cc1)c1cccc(O)c1)c1ccccc1 [DROLOXIFENE] is 6.6

Value of Hepatotoxicity (moderate) reported for the molecule CN1C(C(=O)Nc2ccccn2)=C(O)c2ccccc2S1(=O)=O [PIROXICAM] is 73

This collection of values is drawn from ChEMBL document CHEMBL3137667.
